- measuredOn: T1, Human OSM (human, UniProt P13725 26-221)
- T1 construct: Recombinant human OSM; also called hOSM; human Oncostatin M
- T1 sequence: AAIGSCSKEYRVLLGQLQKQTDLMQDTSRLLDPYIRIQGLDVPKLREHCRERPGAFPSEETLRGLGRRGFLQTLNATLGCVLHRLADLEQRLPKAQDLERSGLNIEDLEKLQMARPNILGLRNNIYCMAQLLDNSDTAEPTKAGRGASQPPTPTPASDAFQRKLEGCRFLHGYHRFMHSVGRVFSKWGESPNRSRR
- experimentalProtocol: BIAcore kinetics
pKd: −log10 of the molar value.

binder: anti human OSM mAb S168110G08(1)1A09 (10G8), murine (antibody, V domains shown, Mouse hybridoma mAb; also called 10G8/A9; 10G8.A9) VH: EMQLVESGEGLVEPGGSLKLSCAASGFTFSNYAMSWVRQTPEKSLEWVATISDGGSFTYYLDNVRGRFTISRDNAKNNLYLQMSHLKSDDTAMYYCARDVGHTTFWYFDVWGSGTAVTVSS VL: DIVLTQSPVFLVVSLGQRATISCRASKSVSAAGYNFMHWYQQKPGQPPKVLIKYASNLESGVPARFSGSGSGTDFTLNIHPVEEEDAVTYYCLHSREFPFTFGGGTNLEIK
pKd: 9.26
--
binder: 9G2, murine anti-OSM mAb (antibody, V domains shown, Mouse hybridoma mAb; also called 9G2/C1; 9G2.C1) VH: EVQLVESGGGLVEPGGSLKLSCAASGFTFSNYAMSWVRQTPEKRLEWVATISDGGSFTYYLDNVKGRFTISRDNAKNNLYLQMSHLKSDDTAMYYCARDVGHTTFWYFDVWGTGTTVTVSS VL: DIVLTQSPVFLVISLGQRATISCRASKSVSASGYNFMHWYQQKPGQPPKVLIKYASNLESGVPARFSGSGSGTDFTLNIHPVEEEDAVTYYCQHSREFPFTFGGGTKLEIK
pKd: 8.80
--
binder: 3E3, murine anti-OSM mAb (antibody, V domains shown, Mouse hybridoma mAb; also called 3E3/A1; 3E3.A1) VH: EVQLVESGGDLVKPGGSLKLSCVPSGFTFSSYAMSWVRQTPEKRLEWVATISDGGSFTYYFANIQGRFTISRDNTKNNLYLQMNHLKSEDAGMYYCARDVGLTTFWYFDVWGTGTTVTVSS VL: DIVLTQSPASLTISLGQRATISCRASKSVSPSGYDFMHWYQQKPGQPPKLLIKYASELESGVPGRFSGSGSGTDFTLNIHPVEEEDAATYFCQHSREFPFTFGGGTKLEIK
pKd: 8.89
--
binder: 2B7, murine anti-OSM mAb (antibody, V domains shown, Mouse hybridoma mAb; also called 2B7/A6; 2B7.A6) VH: EVQLVESGGGLVKPGGSLKLSCAASGFTFSNYAMSWVRQTPEKRLEWVATISDGGGYTYYLDNGQGRFTISRDNAKNNLYLQMSHLKSEDTAMYYCARDVGLTTFWYFDVWGTGTTVTVSS VL: DIVLTQSPVSLVISLGQRATISCRASKSVSPSSYNFMHWYQQRPGQPPKLLITYASNLESGVPARFSGSGSGTDFTLNIHPVEEEDAATYYCQHSREFPFTFGGGTRLEIK
pKd: 8.68
